Where these numbers come from: patent US8883963B2

- Test system: Human GLP-1 receptor (Homo sapiens)
- Construct: The full-length cDNA was cloned in pcDNA3.1(+); expressed in transfected cells
- Sequence (P43220 24-463): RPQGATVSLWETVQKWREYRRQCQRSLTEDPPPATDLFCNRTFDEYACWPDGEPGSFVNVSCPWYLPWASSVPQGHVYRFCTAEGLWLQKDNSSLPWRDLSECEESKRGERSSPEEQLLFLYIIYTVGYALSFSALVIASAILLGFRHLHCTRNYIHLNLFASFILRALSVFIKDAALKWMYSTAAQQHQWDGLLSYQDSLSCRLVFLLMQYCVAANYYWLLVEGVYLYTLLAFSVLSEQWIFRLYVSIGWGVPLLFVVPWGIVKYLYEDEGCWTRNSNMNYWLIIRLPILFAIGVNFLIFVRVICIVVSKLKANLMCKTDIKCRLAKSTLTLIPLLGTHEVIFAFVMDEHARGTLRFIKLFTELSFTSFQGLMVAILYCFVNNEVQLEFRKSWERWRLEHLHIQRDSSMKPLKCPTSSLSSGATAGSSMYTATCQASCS
- Experiment notes: In vitro Human GLP-1 R agonist activity (cyclic AMP determination) in CHO/human GLP1R cells
- Format: cell-based
- Experimental context: 1 μM test compound
Parameter: Human GLP-1 R activity (cAMP release), % activity with respect to control (%)
Report only the number, with the unit % understood.

q: Provide only the value of recorded Human GLP-1 R activity (cAMP release), % activity with respect to control for CCc1cc(OC)ccc1-c1ccc(CC(CNC(CCCc2ccccc2F)C(N)=O)NC[C@H](CC(=O)O)NC(=O)[C@H](CO)NC(=O)[C@@H](NC(=O)C(C)(Cc2ccccc2F)NC(=O)[C@@H](NC(=O)CNC(=O)[C@H](CCC(N)=O)NC(=O)C(C)(C)NC(=O)[C@H](Cc2c[nH]cn2)NC(=O)OC)[C@@H](C)O)[C@@H](C)O)cc1 (single isomer, unassigned) [compound 196]
a: 96

q: Provide only the value of recorded Human GLP-1 R activity (cAMP release), % activity with respect to control for CCc1cc(OC)ccc1-c1ccc(CC(NC(=O)[C@H](CC(=O)O)NC(=O)[C@H](CO)NC(=O)[C@@H](NC(=O)C(C)(Cc2ccccc2F)NC(=O)[C@@H](NC(=O)CNC(=O)[C@H](CC(C(F)(F)F)C(F)(F)F)NC(=O)C(C)(C)NC(=O)[C@@H](N)Cc2c[nH]cn2)[C@H](C)O)[C@H](C)O)C(=O)NC(CCCc2ccccc2)C(N)=O)cc1 (single isomer, unassigned) [compound 228]
a: 99

q: Provide only the value of recorded Human GLP-1 R activity (cAMP release), % activity with respect to control for CCc1cc(OC)ccc1-c1ccc(CC(C(=O)N(C)C(CCCc2ccccc2)C(N)=O)N(C)C(=O)[C@H](CC(=O)O)N(C)C(=O)[C@H](CO)NC(=O)[C@@H](NC(=O)C(C)(Cc2ccccc2F)NC(=O)[C@@H](NC(=O)CNC(=O)C(CCC#N)NC(=O)C(C)(C)NC(=O)[C@@H](N)Cc2c[nH]cn2)[C@H](C)O)[C@H](C)O)cc1 (single isomer, unassigned) [compound 154]
a: 99

q: Provide only the value of recorded Human GLP-1 R activity (cAMP release), % activity with respect to control for CCc1cc(OC)ccc1-c1ccc(CC(NC(=O)[C@H](CC(=O)O)NC(=O)[C@H](CO)NC(=O)[C@@H](NC(=O)C(C)(Cc2ccccc2F)NC(=O)[C@@H](NC(=O)CNC(=O)C(CCC#N)NC(=O)C(C)(C)NC(=O)[C@@H](N)Cc2c[nH]cn2)[C@H](C)O)[C@H](C)O)C(=O)NC(CCCc2ccccc2F)C(N)=O)cc1 (single isomer, unassigned) [compound 116]
a: 99

q: Provide only the value of recorded Human GLP-1 R activity (cAMP release), % activity with respect to control for CCc1cc(OC)ccc1-c1ccc(CC(NC(=O)[C@H](CC(=O)O)NC(=O)[C@H](CO)NC(=O)[C@@H](NC(=O)C(C)(Cc2ccccc2F)NC(=O)[C@@H](NC(=O)CNC(=O)C(CCC#N)NC(=O)C(C)(C)NC(=O)[C@@H](N)Cc2c[nH]cn2)[C@H](C)O)[C@H](C)O)C(=O)N(C)C(CCCc2ccccc2)C(N)=O)cc1 (single isomer, unassigned) [compound 130]
a: 96

q: Provide only the value of recorded Human GLP-1 R activity (cAMP release), % activity with respect to control for CCc1cc(OC)ccc1-c1ccc(CC(NC(=O)[C@H](CC(=O)O)NC(=O)[C@H](CO)NC(=O)[C@@H](NC(=O)[C@H](Cc2ccccc2)NC(=O)[C@@H](NC(=O)CNC(=O)C(CCC#N)NC(=O)C(C)(C)NC(=O)[C@@H](N)Cc2c[nH]cn2)[C@@H](C)O)[C@@H](C)O)C(=O)NC(CCCc2ccc(OC)cc2Cl)C(N)=O)cc1 (single isomer, unassigned) [compound 84]
a: 94

q: Provide only the value of recorded Human GLP-1 R activity (cAMP release), % activity with respect to control for CCc1cc(OC)ccc1-c1ccc(CC(CNC(CCCc2ccccc2)C(N)=O)NC(=O)[C@H](CC(=O)O)NC(=O)[C@H](CO)NC(=O)[C@@H](NC(=O)C(C)(Cc2ccccc2F)NC(=O)[C@@H](NC(=O)CNC(=O)C(CCC#N)NC(=O)C(C)(C)NC(=O)[C@@H](N)Cc2c[nH]cn2)[C@H](C)O)[C@H](C)O)cc1 (single isomer, unassigned) [compound 190]
a: 95

q: Provide only the value of recorded Human GLP-1 R activity (cAMP release), % activity with respect to control for CCc1cc(OC)ccc1-c1ccc(CC(NC(=O)[C@H](CC(=O)O)NC(=O)[C@H](CO)NC(=O)[C@@H](NC(=O)[C@H](Cc2ccccc2)NC(=O)[C@@H](NC(=O)CNC(=O)[C@H](CCC(N)=O)NC(=O)[C@H](CO)NC(=O)[C@@H](N)Cc2c[nH]cn2)[C@@H](C)O)[C@@H](C)O)C(=O)NC(CCCc2ccccc2Cl)C(N)=O)cc1 (single isomer, unassigned) [compound 50]
a: 99

q: Provide only the value of recorded Human GLP-1 R activity (cAMP release), % activity with respect to control for CCc1cc(OC)ccc1-c1ccc(CC(NC(=O)[C@H](CC(=O)O)NC(=O)[C@H](CO)NC(=O)[C@@H](NC(=O)C(C)(Cc2ccccc2F)NC(=O)[C@@H](NC(=O)CNC(=O)[C@H](CC(C(F)(F)F)C(F)(F)F)NC(=O)C(C)(C)NC(=O)[C@@H](N)Cc2c[nH]cn2)[C@@H](C)O)[C@H](C)O)C(=O)NC(CCCc2ccccc2F)C(N)=O)cc1 (single isomer, unassigned) [compound 224]
a: 99

q: Provide only the value of recorded Human GLP-1 R activity (cAMP release), % activity with respect to control for CCc1cc(OC)ccc1-c1ccc(CC(NC(=O)[C@H](CC(=O)O)NC(=O)[C@H](CO)NC(=O)[C@@H](NC(=O)[C@H](Cc2ccccc2)NC(=O)[C@@H](NC(=O)CNC(=O)[C@H](CCC(N)=O)NC(=O)[C@H](CO)NC(=O)[C@@H](N)Cc2c[nH]cn2)[C@@H](C)O)[C@@H](C)O)C(=O)NC(CCCc2ccccc2F)C(N)=O)cc1 (single isomer, unassigned) [compound 45]
a: 99

q: Provide only the value of recorded Human GLP-1 R activity (cAMP release), % activity with respect to control for CCc1cc(OC)ccc1-c1ccc(CC(CNC(CCCc2ccccc2F)C(N)=O)NC[C@H](CC(=O)O)NC(=O)[C@H](CO)NC(=O)[C@@H](NC(=O)C(C)(Cc2ccccc2F)NC(=O)[C@@H](NC(=O)CNC(=O)[C@H](CCC(N)=O)NC(=O)C(C)(C)NC(=O)[C@H](Cc2c[nH]cn2)NC(=O)OC)[C@H](C)O)[C@H](C)O)cc1 (single isomer, unassigned) [compound 200]
a: 99
